# Tested on: KPN BAA-1898
# EXPERIMENTAL_DETAILS: MIC, broth microdilution (CLSI), substance alone or ATB combined with compound at 4 or 8 μg/mL
# Format: cell-based, K. pneumoniae
# CONDITION_INFO: ATB FOS; KPN BAA-1898; Example @8 μg/ml
ASSAY_METRIC: MIC ATB combined with Example (µg/mL)
Just the number in µg/mL, nothing appended.

Under KPN BAA-1898: MIC ATB combined with Example value of O=C1N2CC(n3cccn3)=CC(C2)N1OC(F)(F)C(=O)[O-].[Li+] (centres unmarked) ?
4

Turning now to a further record.
Lookup: MIC ATB combined with Example / KPN BAA-1898 / NCCCn1c2c(sc1=O)C1CN(C2)C(=O)N1OS(=O)(=O)O (centres unmarked)
2

---

# System: PAE UFR90
# EXPERIMENTAL_DETAILS: MIC, broth microdilution (CLSI), substance alone or ATB combined with compound at 4 or 8 μg/mL
# Format: cell-based, P. aeruginosa
# CONDITION_INFO: PAE UFR90; with Example 9 at 4 μg/ml
# Method: Compounds of the present invention were assessed against genotyped bacterial strains alone or in combination with an antibacterial. In the assays, MICs of said compounds or combination of antibiotics with fixed concentrations of said compounds (4 or 8 μg/mL) were determined by the broth microdilution method according to the Clinical Laboratory Standards Institute (CLSI-M7-A7). […]
ASSAY_METRIC: MIC ATB combined with Example 9 @4 μg/ml (mg/L)
Give just the number in mg/L; leave the unit off.

Some molecules with known MIC ATB combined with Example 9 @4 μg/ml results, for comparison:
Hi! What's the reported MIC ATB combined with Example 9 @4 μg/ml for NCC[C@H](O)C(=O)N[C@@H]1C[C@H](N)[C@@H](O[C@H]2O[C@H](CN)[C@@H](O)[C@H](O)[C@H]2O)[C@H](O)[C@H]1O[C@H]1O[C@H](CO)[C@@H](O)[C@H](N)[C@H]1O [AN, Amikacin, reference compound] on PAE UFR90?
2

# value lookup — system PAE UFR90, readout MIC ATB combined with Example 9 @4 μg/ml, item CN(C)c1cc(NC(=O)CNC(C)(C)C)c(O)c2c1C[C@H]1C[C@H]3[C@H](N(C)C)C(O)=C(C(N)=O)C(=O)[C@@]3(O)C(O)=C1C2=O [TGC]
16

Now consider the entry below.
Return MIC ATB combined with Example 9 @4 μg/ml measured with PAE UFR90 given this molecule: C[C@@H](O)[C@H]1C(=O)N2C(C(=O)O)=C(SCCN=CN)C[C@H]12 [IMI]
1

---

# System: SAU 29213
# EXPERIMENTAL_DETAILS: MIC, broth microdilution (CLSI), substance alone or ATB combined with compound at 4 or 8 μg/mL
# Assay type: cell-based, S. aureus
# CONDITION_INFO: Staphylococcus aureus; substance alone; SAU 29213 (MSSA 29213); read-out: MIC
Below, each of the molecules is paired with its reported MIC value.
Answer format: numeric, µg/mL implied, no suffix.

Take a look at these entries with their results.
Give its MIC value. Item: CO/N=C(\C(=O)N[C@@H]1C(=O)N2C(C(=O)[O-])=C(C[N+]3(C)CCCC3)CS[C@H]12)c1csc(N)n1 [FEP, Cefepime]
4

Fill in the blank: the reported MIC of CCN1CCN(C(=O)N[C@@H](C(=O)N[C@@H]2C(=O)N3[C@@H]2SC(C)(C)[C@@H]3C(=O)O)c2ccccc2)C(=O)C1=O [PIP, Piperacillin, reference compound] is ____.
8

Item NCCCn1c2c(sc1=O)C1CN(C2)C(=O)N1OS(=O)(=O)O (stereo not shown) has what recorded MIC?
32

Can you look up the measured MIC of C[C@@H]1O[C@@H]1P(=O)(O)O [FOS, Fosfomycin, reference compound] for me?
2

Next:
Look at this molecule and give its reported MIC. O=C1N2CC(n3cccn3)=C[C@H](C2)N1OS(=O)(=O)[O-].[Na+]
4

Could you share which MIC value was measured for O=C1N2CC(c3cccnc3)=CC(C2)N1OS(=O)(=O)[O-].[Na+] (stereo not shown) ?
8

Name the recorded MIC for O=C1N2CC(n3cncn3)=CC(C2)N1OS(=O)(=O)[O-].[Na+] (stereo not shown) .
4

Report MIC for O=C1N2CC(n3cccn3)=CC(C2)N1OS(=O)(=O)[O-].[Na+] (stereo not shown) please.
8

Can you look up the measured MIC of NCCn1c2c(sc1=O)C1CN(C2)C(=O)N1OS(=O)(=O)[O-].[Na+] (stereo not shown) for me?
32

Fill in: MIC of O=C1N2CC(c3ncco3)=C[C@H](C2)N1OS(=O)(=O)[O-].[Na+] is ___
8

---

MIC ATB combined with Example 1 @8 μg/ml overview
# Test system: KPN BAA-1898
# EXPERIMENTAL_DETAILS: MIC, broth microdilution (CLSI), substance alone or ATB combined with compound at 4 or 8 μg/mL
# Type: cell-based, K. pneumoniae
# CONDITION_INFO: KPN BAA-1898; with Example 1 @8 μg/ml
Respond numerically; units are µg/mL and should not be typed.

Lab note: need MIC ATB combined with Example 1 @8 μg/ml with KPN BAA-1898 for entry CO/N=C(\C(=O)N[C@@H]1C(=O)N2C(C(=O)[O-])=C(C[n+]3cccc4c3CCC4)CS[C@H]12)c1csc(N)n1 [CPO] , please look it up.
0.125

Consider the record given below.
Request - read-out MIC ATB combined with Example 1 @8 μg/ml | tested on KPN BAA-1898 | compound CO/N=C(\C(=O)N[C@@H]1C(=O)N2C(C(=O)O)=C(COC(N)=O)CS[C@H]12)c1ccco1 [FUR, Cefuroxime, reference compound]
2

---

# Test system: KPN UFR68
# EXPERIMENTAL_DETAILS: Fractional Inhibitory Concentration Index, checkerboard assay
# Type: cell-based, K. pneumoniae
# CONDITION_INFO: compound +FEP
As shown below, each of these compounds has a reported FIC index min value.

See these solved cases before continuing.
Give the measured FIC index min of O=C1N2CC(c3ncco3)=C[C@H](C2)N1OS(=O)(=O)[O-].[Na+] .
≤0.05

Which FIC index min reading was recorded for the compound NC[C@@H]1C(c2ncco2)=C[C@@H]2CN1C(=O)N2OS(=O)(=O)[O-].O=C(O)C(F)(F)F.[Na+] ?
≤0.0098

Can you share its FIC index min? I mean this compound: NC[C@@H]1CC(=NOCC(N)=O)[C@@H]2CN1C(=O)N2OS(=O)(=O)[O-].O=C(O)C(F)(F)F.[Na+]
≤0.006

Here's the next entry for you.
Need FIC index min, item NCCn1c2c(sc1=O)C1CN(C2)C(=O)N1OS(=O)(=O)[O-].[Na+] (stereo not shown)
0.021

---

# Test system: PAE UFR48
# EXPERIMENTAL_DETAILS: MIC, broth microdilution (CLSI), substance alone or ATB combined with compound at 4 or 8 μg/mL
# Type: cell-based, P. aeruginosa
# CONDITION_INFO: ATB MEM; compound @4 μg/ml; PAE UFR48
ASSAY_METRIC: MIC ATB combined with compound

What measured MIC ATB combined with compound goes with NC[C@@H]1C(c2ncco2)=C[C@@H]2CN1C(=O)N2OS(=O)(=O)[O-].O=C(O)C(F)(F)F.[Na+] [Example 5] ?
<0.031 µg/mL

Can you look up the measured MIC ATB combined with compound of NC[C@@H]1CC(=NOCC(N)=O)[C@@H]2CN1C(=O)N2OS(=O)(=O)[O-].O=C(O)C(F)(F)F.[Na+] [Example 4] for me?
<0.031 µg/mL

Consider the compound O=C1N2CC(c3ncco3)=C[C@H](C2)N1OS(=O)(=O)[O-].[Na+] [Example 9] and give its measured MIC ATB combined with compound.
2 µg/mL

Please examine the following record next.
Field request: MIC ATB combined with compound | item: NCCON=C1C[C@@H](C(N)=O)N2C[C@@H]1N(OS(=O)(=O)[O-])C2=O.[Na+] [Example 2]
4 µg/mL

---

# Test system: KPN UFR42
# EXPERIMENTAL_DETAILS: MIC, broth microdilution (CLSI), substance alone or ATB combined with compound at 4 or 8 μg/mL
# Assay type: cell-based, K. pneumoniae
# CONDITION_INFO: substance alone; KPN UFR42
ASSAY_METRIC: MIC (µg/mL)
Hi! Could you send only the number? It should be in µg/mL, unit omitted.

Below are worked cases with known answers.
Request the reported MIC associated with O=C(O)C(F)(F)F.O=C1N2C[C@H](c3scnc3[C@H]2c2ncc[nH]2)N1OS(=O)(=O)[O-].[Na+] (relative stereo)
4

Need MIC, item O=C1N2CC(n3ccnn3)=CC(C2)N1OS(=O)(=O)[O-].[Na+] (stereo not shown)
4

Attention now shifts to the item below.
I'd like to know its MIC. The compound in question is O=C1N2CC(n3ccnn3)=C[C@H](C2)N1OS(=O)(=O)[O-].[Na+]
2
